# ASSAY_TARGET: human S1P1 receptor (Homo sapiens)
# Construct: expressed in transfected cells; membranes were used
# Sequence (P21453 whole entry): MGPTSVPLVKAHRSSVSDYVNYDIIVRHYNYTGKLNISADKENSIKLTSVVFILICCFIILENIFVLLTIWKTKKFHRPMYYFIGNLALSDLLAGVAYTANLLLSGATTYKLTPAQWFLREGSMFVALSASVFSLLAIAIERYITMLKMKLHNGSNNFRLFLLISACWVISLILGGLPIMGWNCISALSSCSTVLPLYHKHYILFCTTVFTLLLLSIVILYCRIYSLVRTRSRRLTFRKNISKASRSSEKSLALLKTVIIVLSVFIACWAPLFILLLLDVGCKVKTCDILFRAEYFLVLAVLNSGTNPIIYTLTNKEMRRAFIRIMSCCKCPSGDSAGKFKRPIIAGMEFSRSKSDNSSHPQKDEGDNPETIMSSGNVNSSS
# TEST_DESCRIPTION: GTP γ35S binding assay for S1P1 activity
# Assay type: biochemical
# CONDITION_LABEL: activity potency from GTP γ35S binding; 5 μg membrane protein, 30 min at 25° C., test compounds 0.08 to 5,000 nM
Please note: EC50 exactly at 2000 nM is not met. Only values below 2000 nM get met.

INSERT INTO measurements (compound, discrete_label) VALUES
  ('CNc1ncccc1-c1noc(C(Cc2ccc(C)c(C)c2)c2cccc(Cl)c2)n1 (stereo not shown)', 'met'),
  ('CNc1ncccc1-c1noc(C(Cc2ccc(C)c(C)c2)c2cccc(C)c2)n1 (stereo not shown)', 'met'),
  ('CNc1ncccc1-c1noc(C(Cc2ccc(C)c(C)c2)c2cc(F)cc(F)c2)n1 (stereo not shown)', 'met'),
  ('CNc1ncccc1-c1noc(C(Cc2ccc(C)c(C)c2)c2cccc(F)c2)n1 (stereo not shown)', 'met'),
  ('CNc1ncccc1-c1noc(C(Cc2ccccc2)c2ccc(Cl)cc2)n1 (stereo not shown)', 'not met'),
  ('CNc1ncccc1-c1noc(C(Cc2ccc(C)c(C)c2)c2ccc(C(F)(F)F)cc2)n1 (stereo not shown)', 'not met'),
  ('CNc1ncccc1-c1noc(C(Cc2ccc(C)c(C)c2)c2cccs2)n1 (stereo not shown)', 'met'),
  ('CNc1ncccc1-c1noc(C(Cc2ccc(C)cc2)c2cccs2)n1 (stereo not shown)', 'met'),
  ('CNc1ncccc1-c1noc(C(CC2CCCC2)c2cccc(Cl)c2)n1 (stereo not shown)', 'met');

Provenance of the data: patent US8492410B2
